Origin of measurements: patent US20250304620A1

Tested on: Escherichia coli ATCC 25922
Test: Oral formulations on mice with systemic bacterial infection
Format: in vivo, ICR mice
Details: 0.2 mg/kg gavage, three times a day for 7 days, n = 10
Non-standard residues stand in square brackets, D forms with d. Residues, ends and D or L forms follow the SMILES beside them. d2Nal = N[C@H](Cc1ccc2ccccc2c1)C(=O)O
measureName: Number of mice that died on each day after infection: day 8

Short answer for CC(=O)N[C@H](CCCNC(=N)N)C(=O)N[C@H](CCCCN)C(=O)N[C@H](CC(C)C)C(=O)N[C@H](CC(C)C)C(=O)N[C@H](Cc1ccc2ccccc2c1)C(=O)N[C@H](CCCCN)C(=O)N[C@H](CC(C)C)C(=O)N[C@H](CCCCN)C(=O)N[C@H](Cc1ccc2ccccc2c1)C(=O)N[C@H](CCCCN)C(=O)N[C@H](CCCNC(=N)N)C(N)=O [LV-18] (Ac-[dR][dK][dL][dL][d2Nal][dK][dL][dK][d2Nal][dK][dR]-NH2) : Number of mice that died on each day after infection: day 8 was 0 Mouse

* * *

Entries annotated with measured Number of mice that died on each day after infection: day 5
Test system: Escherichia coli ATCC 25922
Assay: Oral formulations on mice with systemic bacterial infection
Assay type: in vivo, ICR mice
Conditions: 0.2 mg/kg gavage, three times a day for 7 days, n = 10
Non-standard residues stand in square brackets, D forms with d. Residues, ends and D or L forms follow the SMILES beside them. d2Nal = N[C@H](Cc1ccc2ccccc2c1)C(=O)O; dNle = CCCC[C@@H](N)C(=O)O
The figure you give is taken to be in Mouse; do not add the unit.

{"columns": ["compound", "uom", "recordedResult"],
 "data": [
  ["CC(=O)N[C@H](CCCNC(=N)N)C(=O)N[C@H](CCCCN)C(=O)N[C@H](CC(C)C)C(=O)N[C@H](CC(C)C)C(=O)N[C@H](Cc1ccc2ccccc2c1)C(=O)N[C@H](CCCCN)C(=O)N[C@H](CC(C)C)C(=O)N[C@H](CCCCN)C(=O)N[C@H](Cc1ccc2ccccc2c1)C(=O)N[C@H](CCCCN)C(=O)N[C@H](CCCNC(=N)N)C(N)=O [LV-18] (Ac-[dR][dK][dL][dL][d2Nal][dK][dL][dK][d2Nal][dK][dR]-NH2)", "Mouse", 1],
  ["CC(=O)N[C@H](CCCNC(=N)N)C(=O)N[C@H](CCCNC(=N)N)C(=O)N[C@H](CC(C)C)C(=O)N[C@H](CC(C)C)C(=O)N[C@H](Cc1ccc2ccccc2c1)C(=O)N[C@H](CCCNC(=N)N)C(=O)N[C@H](CC(C)C)C(=O)N[C@H](CCCNC(=N)N)C(=O)N[C@H](Cc1ccc2ccccc2c1)C(=O)N[C@H](CCCNC(=N)N)C(=O)N[C@H](CCCNC(=N)N)C(N)=O [LV-1] (Ac-[dR][dR][dL][dL][d2Nal][dR][dL][dR][d2Nal][dR][dR]-NH2)", "Mouse", 3],
  ["CC(=O)N[C@H](CCCCN)C(=O)N[C@H](CCCCN)C(=O)N[C@H](CC(C)C)C(=O)N[C@H](CC(C)C)C(=O)N[C@H](Cc1ccc2ccccc2c1)C(=O)N[C@H](CCCCN)C(=O)N[C@H](CC(C)C)C(=O)N[C@H](CCCCN)C(=O)N[C@H](Cc1ccc2ccccc2c1)C(=O)N[C@H](CCCCN)C(=O)N[C@H](CCCCN)C(N)=O [LV-17] (Ac-[dK][dK][dL][dL][d2Nal][dK][dL][dK][d2Nal][dK][dK]-NH2)", "Mouse", 2],
  ["CC(=O)N[C@H](CCCCN)C(=O)N[C@H](CCCCN)C(=O)N[C@H](CC(C)C)C(=O)N[C@H](CC(C)C)C(=O)N[C@H](Cc1ccc2ccccc2c1)C(=O)N[C@H](CCCNC(=N)N)C(=O)N[C@H](CC(C)C)C(=O)N[C@H](CCCCN)C(=O)N[C@H](Cc1ccc2ccccc2c1)C(=O)N[C@H](CCCNC(=N)N)C(=O)N[C@H](CCCCN)C(N)=O [LV-19] (Ac-[dK][dK][dL][dL][d2Nal][dR][dL][dK][d2Nal][dR][dK]-NH2)", "Mouse", 2],
  ["CC(=O)N[C@H](CCCNC(=N)N)C(=O)N[C@H](CCCCN)C(=O)N[C@H](CC(C)C)C(=O)N[C@H](CC(C)C)C(=O)N[C@H](Cc1ccc2ccccc2c1)C(=O)N[C@H](CCCNC(=N)N)C(=O)N[C@H](CC(C)C)C(=O)N[C@H](CCCCN)C(=O)N[C@H](Cc1ccc2ccccc2c1)C(=O)N[C@H](CCCNC(=N)N)C(=O)N[C@H](CCCCN)C(N)=O [LV-20] (Ac-[dR][dK][dL][dL][d2Nal][dR][dL][dK][d2Nal][dR][dK]-NH2)", "Mouse", 1]
]}

Proceeding to the next compound to report its Number of mice that died on each day after infection: day 5.
Kindly note the recorded Number of mice that died on each day after infection: day 5 for CCCC[C@@H](NC(=O)[C@@H](CCCCN)NC(=O)[C@@H](CCCNC(=N)N)NC(C)=O)C(=O)N[C@H](CCCC)C(=O)N[C@H](Cc1ccc2ccccc2c1)C(=O)N[C@H](CCCNC(=N)N)C(=O)N[C@H](CCCC)C(=O)N[C@H](CCCCN)C(=O)N[C@H](Cc1ccc2ccccc2c1)C(=O)N[C@H](CCCNC(=N)N)C(=O)N[C@H](CCCCN)C(N)=O [LV-12] (Ac-[dR][dK][dNle][dNle][d2Nal][dR][dNle][dK][d2Nal][dR][dK]-NH2) , which is 2

* * *

System: Methicillin-sensitive Staphylococcus aureus (NRS 384)
Format: in vivo, ICR mice
Details: topical formulation 1 mg/mL, 0.1 mL twice a day for 4 days, mouse back skin infection
Method: Both female and male ICR mice were used in the test, half of the female and male mice were taken and randomly assigned into groups, with 10 mice in each group, and kept in separate cages. The mice were divided into a blank group, a model group, a positive control Methicillin group, and topical formulation groups of AMPs LV-1 to LV-30. […] On the day following the final administration, skin from the infected sites of each group was aseptically collected, and an antibacterial rate was calculated.
Non-standard residues stand in square brackets, D forms with d. PEG2000 = polyethylene glycol 2000, conjugated to the N-terminus; PEG4000 = polyethylene glycol 4000, conjugated to the C-terminus; PEG200 = polyethylene glycol 200, conjugated to the C-terminus; PEG500 = polyethylene glycol 500, conjugated to the C-terminus; 2Nal = N[C@@H](Cc1ccc2ccccc2c1)C(=O)O; PEG1000 = polyethylene glycol 1000
Overview of reported Inhibition rate against Methicillin-sensitive Staphylococcus aureus (%) across a group of substances:
Report only the number, with the unit % understood.

Below, 3 substances whose answers are already recorded.
{"columns": ["substance", "uom", "recordedResult"],
 "data": [
  ["Ac-RKLLXRLKXRK-PEG4000 [LV-30] (Ac-RKLL[2Nal]RLK[2Nal]RK-PEG4000) [polyethylene glycol 4000 conjugated to C-terminal; X=3-(2-naphthyl)-alanine]", "%", 96.91],
  ["PEG2000-RKLLXRLKXRK-NH2 [LV-29] (PEG2000-RKLL[2Nal]RLK[2Nal]RK-NH2) [polyethylene glycol 2000 conjugated to N-terminal; X=3-(2-naphthyl)-alanine]", "%", 97.11],
  ["Ac-RKLLXRLKXRK-PEG500 [LV-27] (Ac-RKLL[2Nal]RLK[2Nal]RK-PEG500) [polyethylene glycol 500 conjugated to C-terminal; X=3-(2-naphthyl)-alanine]", "%", 98.74]
]}

Data point: Ac-RKLLXRLKXRK-PEG200 [LV-26] (Ac-RKLL[2Nal]RLK[2Nal]RK-PEG200) [polyethylene glycol 200 conjugated to C-terminal; X=3-(2-naphthyl)-alanine] ; Inhibition rate against Methicillin-sensitive Staphylococcus aureus (%) = 96.92

Lab note: measured Inhibition rate against Methicillin-sensitive Staphylococcus aureus (%) of Ac-RKLLXRLKXRK-PEG1000 [LV-28] (Ac-RKLL[2Nal]RLK[2Nal]RK-PEG1000) [polyethylene glycol 1000 conjugated to C-terminal; X=3-(2-naphthyl)-alanine] was 96.75

* * *

Test system: Escherichia coli ATCC 25922
Assay: Oral formulations on mice with systemic bacterial infection
Format: in vivo, ICR mice
Details: 1 mg/kg gavage, three times a day for 7 days, n = 10
Method: Both female and male ICR mice were used in the test, half of the female and male mice were taken and randomly assigned into groups, with 10 mice in each group, and kept in separate cages. The mice were divided into a blank control group, a negative control group, a positive control Levofloxacin group, and AMPs LV-1 to LV-30 groups. […] The death of mice in each group was observed, and survival time of the mice was recorded. […]
Non-standard residues stand in square brackets, D forms with d. Residues, ends and D or L forms follow the SMILES beside them. dPhe(4-Br) = N[C@H](Cc1ccc(Br)cc1)C(=O)O; dPhe(4-Me) = Cc1ccc(C[C@@H](N)C(=O)O)cc1; d2Nal = N[C@H](Cc1ccc2ccccc2c1)C(=O)O; dNle = CCCC[C@@H](N)C(=O)O
measureName: Number of mice that died on each day after infection: day 8 (Mouse)
Quick reminder: number only, in Mouse, skip the unit.

These solved cases illustrate the format of a correct answer.
{"columns": ["compound", "recordedResult"],
 "data": [
  ["CCCC[C@@H](NC(=O)[C@@H](CCCCN)NC(=O)[C@@H](CCCNC(=N)N)NC(C)=O)C(=O)N[C@H](CCCC)C(=O)N[C@H](Cc1ccc2ccccc2c1)C(=O)N[C@H](CCCNC(=N)N)C(=O)N[C@H](CCCC)C(=O)N[C@H](CCCCN)C(=O)N[C@H](Cc1ccc2ccccc2c1)C(=O)N[C@H](CCCNC(=N)N)C(=O)N[C@H](CCCCN)C(N)=O [LV-12] (Ac-[dR][dK][dNle][dNle][d2Nal][dR][dNle][dK][d2Nal][dR][dK]-NH2)", 1],
  ["CC(=O)N[C@H](CCCNC(=N)N)C(=O)N[C@H](CCCCN)C(=O)N[C@H](CC(C)C)C(=O)N[C@H](CC(C)C)C(=O)N[C@H](Cc1ccc(C)cc1)C(=O)N[C@H](CCCCN)C(=O)N[C@H](CC(C)C)C(=O)N[C@H](CCCCN)C(=O)N[C@H](Cc1ccc(C)cc1)C(=O)N[C@H](CCCCN)C(=O)N[C@H](CCCNC(=N)N)C(N)=O [LV-11] (Ac-[dR][dK][dL][dL][dPhe(4-Me)][dK][dL][dK][dPhe(4-Me)][dK][dR]-NH2)", 2],
  ["CC(=O)N[C@H](CCCCN)C(=O)N[C@H](CCCCN)C(=O)N[C@H](CC(C)C)C(=O)N[C@H](CC(C)C)C(=O)N[C@H](Cc1ccc(Br)cc1)C(=O)N[C@H](CCCNC(=N)N)C(=O)N[C@H](CC(C)C)C(=O)N[C@H](CCCCN)C(=O)N[C@H](Cc1ccc(Br)cc1)C(=O)N[C@H](CCCNC(=N)N)C(=O)N[C@H](CCCCN)C(N)=O [LV-10] (Ac-[dK][dK][dL][dL][dPhe(4-Br)][dR][dL][dK][dPhe(4-Br)][dR][dK]-NH2)", 1]
]}

For the compound CC(=O)N[C@H](CCCNC(=N)N)C(=O)N[C@H](CCCNC(=N)N)C(=O)N[C@H](CC(C)C)C(=O)N[C@H](CC(C)C)C(=O)N[C@H](Cc1ccc2ccccc2c1)C(=O)N[C@H](CCCNC(=N)N)C(=O)N[C@H](CC(C)C)C(=O)N[C@H](CCCNC(=N)N)C(=O)N[C@H](Cc1ccc2ccccc2c1)C(=O)N[C@H](CCCNC(=N)N)C(=O)N[C@H](CCCNC(=N)N)C(N)=O [LV-1] (Ac-[dR][dR][dL][dL][d2Nal][dR][dL][dR][d2Nal][dR][dR]-NH2) , the measured Number of mice that died on each day after infection: day 8 on Escherichia coli ATCC 25922 was 1

# lookup: CC(=O)N[C@H](CCCNC(=N)N)C(=O)N[C@H](CCCNC(=N)N)C(=O)N[C@H](CC(C)C)C(=O)N[C@H](CC(C)C)C(=O)N[C@H](Cc1ccc2ccccc2c1)C(=O)N[C@H](CCCCN)C(=O)N[C@H](CC(C)C)C(=O)N[C@H](CCCCN)C(=O)N[C@H](Cc1ccc2ccccc2c1)C(=O)N[C@H](CCCCN)C(=O)N[C@H](CCCNC(=N)N)C(N)=O [LV-24] (Ac-[dR][dR][dL][dL][d2Nal][dK][dL][dK][d2Nal][dK][dR]-NH2) on Escherichia coli ATCC 25922, Number of mice that died on each day after infection: day 8 = 1

Kindly note: Escherichia coli ATCC 25922, CC(=O)N[C@H](CCCCN)C(=O)N[C@H](CCCNC(=N)N)C(=O)N[C@H](CC(C)C)C(=O)N[C@H](CC(C)C)C(=O)N[C@H](Cc1ccc2ccccc2c1)C(=O)N[C@H](CCCCN)C(=O)N[C@H](CC(C)C)C(=O)N[C@H](CCCCN)C(=O)N[C@H](Cc1ccc2ccccc2c1)C(=O)N[C@H](CCCCN)C(=O)N[C@H](CCCNC(=N)N)C(N)=O [LV-23] (Ac-[dK][dR][dL][dL][d2Nal][dK][dL][dK][d2Nal][dK][dR]-NH2) , Number of mice that died on each day after infection: day 8 value reported: 1

Number of mice that died on each day after infection: day 8 of CC(=O)N[C@H](CCCNC(=N)N)C(=O)N[C@H](CCCCN)C(=O)N[C@H](CC(C)C)C(=O)N[C@H](CC(C)C)C(=O)N[C@H](Cc1ccc2ccccc2c1)C(=O)N[C@H](CCCCN)C(=O)N[C@H](CC(C)C)C(=O)N[C@H](CCCCN)C(=O)N[C@H](Cc1ccc2ccccc2c1)C(=O)N[C@H](CCCCN)C(=O)N[C@H](CCCNC(=N)N)C(N)=O [LV-18] (Ac-[dR][dK][dL][dL][d2Nal][dK][dL][dK][d2Nal][dK][dR]-NH2) , assay on Escherichia coli ATCC 25922, is 0
